- Study system: NS3h_1b(con1) HCV helicase (Hepatitis C virus genotype 1b)
- Sequence (Q9WMX2 1192-1657): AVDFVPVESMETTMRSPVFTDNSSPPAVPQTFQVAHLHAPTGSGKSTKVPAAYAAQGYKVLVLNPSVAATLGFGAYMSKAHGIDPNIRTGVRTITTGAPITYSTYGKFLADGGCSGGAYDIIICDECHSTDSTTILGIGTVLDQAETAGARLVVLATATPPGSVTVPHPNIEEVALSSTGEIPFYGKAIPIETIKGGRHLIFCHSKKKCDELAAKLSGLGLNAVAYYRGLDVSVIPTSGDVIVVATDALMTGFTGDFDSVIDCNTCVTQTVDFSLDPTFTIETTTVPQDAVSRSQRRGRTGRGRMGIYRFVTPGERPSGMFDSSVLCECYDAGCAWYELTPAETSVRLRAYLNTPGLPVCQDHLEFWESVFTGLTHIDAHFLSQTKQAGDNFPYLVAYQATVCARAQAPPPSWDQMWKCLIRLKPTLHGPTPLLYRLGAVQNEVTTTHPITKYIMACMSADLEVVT
Measured metric: pIC50
One number for each entry, as −log10 of the molar value.

Request: What value of pIC50 has been reported for the following compound? [Cl-].[Na+]
Result: 1.82

* * *

- Study system: NS3h_1b(con1) HCV helicase (Hepatitis C virus genotype 1b)
- Test method notes: Molecular beacon based helicase assay
- Format: biochemical
- Settings: metal replacing Mg^2+, data not shown
Measured metric: ability of divalent metal to support DNA unwinding

compound="[Ca+2] [Ca^2+]" result="did not support"
compound="[Co+2] [Co^2+]" result="did not support"
compound="[Cl-].[Cl-].[Zn+2] [Zn^2+, ZnCl2]" result="did not support"
